Catalogue of compounds with associated normalized growth
assay: chemical genetic growth profiling, strain panel (AID 1159580);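 further: tested at 20 µM; growth read once vehicle control cultures reached saturation at 30 °C; 1 = growth at the plate median or of vehicle wells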; details: S. cerevisiae deletion strains, growth OD, locus YPL240C, strain hsp82, stronger effect = lower value
Hit rate of the full screen: of about 5,500 compounds, about 2,000 (36%) were called active. About 18% were inconclusive and are not listed. This is one part of the list.
PARAMETER: normalized growth

>>> obs_value("COc1ccc(CN(CCN(C)C)c2ccccn2)cc1")
"1.01 (inactive)"
>>> obs_value("CC(=O)O[C@H]1C[C@@H](OC(C)=O)C(C)(C)C2CC(=O)[C@]3(C)C(CC[C@@]4(C)[C@H](C(=O)O)OC(=O)C5OC543)[C@]21C (stereo partly specified)")
"0.993 (inactive)"
>>> obs_value("COC(=O)[C@@H]1OC(=O)C2OC23[C@@]1(C)CCC1[C@]2(C)C(C[C@H](O)[C@]13C)C(C)(C)[C@H](OC(C)=O)C[C@@H]2OC(C)=O (stereo partly specified)")
"1.01 (inactive)"
>>> obs_value("CN(C)CCN(Cc1cccs1)c1ccccn1")
"1.01 (inactive)"
>>> obs_value("NCCc1cnc[nH]1")
"1.01 (inactive)"
>>> obs_value("COC(=O)C1=COC(OC2OC(CO)C(O)C(O)C2O)C2C(C)CC(=O)C12 (stereo unspecified)")
"1.02 (inactive)"

----------
test: chemical genetic growth profiling, strain panel (AID 1159580); conditions: S. cerevisiae deletion strains, growth OD, locus YHR013C, strain ard1, stronger effect = lower value
The whole screen tested about 5,500 compounds, of which about 2,000 (36%) were called active. About 18% were inconclusive and are not listed. This is one part of the list.
Catalogue of compounds with associated normalized growth
PARAMETER: normalized growth

>>> obs_value("CC[C@@]1(O)C[C@H](O[C@H]2C[C@H](N(C)C)[C@H](O)[C@H](C)O2)c2c(cc3c(c2O)C(=O)c2c(O)cccc2C3=O)[C@H]1C(=O)OC")
1.01
>>> obs_value("COC(=O)C[C@H]1C2(C)CC34OC5(C)O[C@@]6([C@H](OC(C)=O)C(OC(C)=O)[C@]7(C)C(/C(=C(/O)C(C)C)C(=O)O[C@H]7c7ccoc7)[C@@]6(O5)[C@H](OC(C)=O)[C@@]3(O)C2OC(=O)C(C)C)[C@]14C (some centres undefined)")
1
>>> obs_value("Nc1ncn[nH]1")
1.01
>>> obs_value("C#CCN(C)Cc1ccccc1")
1
>>> obs_value("CCCCNC(=O)NS(=O)(=O)c1ccc(C)cc1")
0.992
>>> obs_value("CC[C@@]1(O)C[C@H](O)c2c(cc3c(c2O)C(=O)c2c(O)ccc(O)c2C3=O)[C@H]1C(=O)OC")
1
>>> obs_value("CC(=O)S[C@@H]1CC2=CC(=O)CC[C@]2(C)[C@H]2CC[C@@]3(C)[C@@H](CC[C@@]34CCC(=O)O4)C12 (some centres undefined)")
1.01
>>> obs_value("CC(=O)Oc1cc(OC(C)=O)c2c(c1)O[C@H](c1ccc(OC(C)=O)c(OC(C)=O)c1)[C@H](OC(C)=O)C2")
0.999
>>> obs_value("CCC(C)C(=O)O[C@@H]1C[C@@]2(C)[C@H](c3ccoc3)OC(=O)CC23OC2(C)O[C@]14[C@]1(C)[C@@H](CC(=O)OC)C5(C)CC1(O)[C@](O)(C5OC(=O)C1(C)OC1C)[C@@H](OC(C)=O)[C@]34O2 (some centres undefined)")
0.984

----------
assay: chemical genetic growth profiling, strain panel (AID 1159580);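 further: tested at 20 µM; growth read once vehicle control cultures reached saturation at 30 °C; 1 = growth at the plate median or of vehicle wells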; conditions: S. cerevisiae strains, growth OD, strain wild type
In all, about 5,500 compounds went through this assay and about 2,000 (36%) were called active. About 18% were inconclusive and are not listed. No stated cut-off is given here; in the data, active means normalized growth mostly below about 0.91 (no sharp cut-off); inconclusive means no clear call, values can overlap the other calls; inactive means mostly above about 0.92. Some of the results follow.
Outcome codes: active, inactive

>>> class_label("COc1ccc(C(CN(C)C)C2(O)CCCCC2)cc1 (stereo unspecified)")
"inactive"
>>> class_label("c1ccc(OCCOc2ccccn2)nc1")
"inactive"
>>> class_label("O=C1C(Cl)=C(Cl)C(=O)C(Cl)=C1Cl")
"active"
>>> class_label("CCC(C)C(=O)OC1CC2(C)C(c3ccoc3)OC(=O)CC23OC2(C)OC34C(OC(=O)C(C)C)C3(O)C(OC(=O)C5(C)OC5C)C5(C)CC3(O)C(C)(C5C(=O)OC)C14O2 (stereo unspecified)")
"inactive"
>>> class_label("COc1ccc(C(c2ccc(OC)cc2)C(Cl)(Cl)Cl)cc1")
"inactive"
>>> class_label("O=C(Oc1cc(OC(=O)c2ccccc2)c2c(c1)O[C@H](c1ccc(OC(=O)c3ccccc3)c(OC(=O)c3ccccc3)c1)[C@@H](OC(=O)c1ccccc1)C2)c1ccccc1")
"inactive"

----------
test: chemical genetic growth profiling, strain panel (AID 1159580);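 further: tested at 20 µM; growth read once vehicle control cultures reached saturation at 30 °C; 1 = growth at the plate median or of vehicle wells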; conditions: S. cerevisiae deletion strains, growth OD, locus YCL061C, strain MRC1, stronger effect = lower value
Out of some 5,500 compounds screened, about 2,000 (36%) were called active. Inconclusive results (about 18%) are left out. Some of the results follow.
Catalogue of compounds with associated normalized growth
PARAMETER: normalized growth

>>> obs_value("CCc1nnc(N=CNO)s1")
0.913
>>> obs_value("COc1ccc(-c2coc3cc(O)ccc3c2=O)c(OC)c1O")
0.991
>>> obs_value("C[C@@H]1CC(Cl)CC[C@H]1C(=O)OC(C)(C)C (stereo partly drawn)")
0.983
>>> obs_value("C/C=C(\\C)C(=O)O[C@H]1C[C@@H](OC(C)=O)[C@@]2(C(=O)OC)CO[C@@H]3C2[C@]12CO[C@](O)(C(=O)OC)[C@H]2[C@](C)(C12O[C@@]1(C)[C@H]1C[C@@H]2OC2OC=C[C@@]21O)[C@@H]3O (stereo partly drawn)")
0.986
>>> obs_value("C[C@H]1COc2c(N3CCN(C)CC3)c(F)cc3c(=O)c(C(=O)O)cn1c23")
1.04
>>> obs_value("COc1ccc(C(=O)CC(=O)O)c2c1C=CC(C)(C)O2")
1
>>> obs_value("CC1COc2c(N3CCN(C)CC3)c(F)cc3c(=O)c(C(=O)O)cn1c23 (stereo not drawn)")
0.982
>>> obs_value("CCN(CC)Cc1ccc(Nc2ccnc3cc(Cl)ccc23)cc1O")
1.01
>>> obs_value("CC(C)NCC(O)COc1cccc2[nH]ccc12 (stereo not drawn)")
0.984
>>> obs_value("COc1c(N2CCNC(C)C2)c(F)cc2c(=O)c(C(=O)O)cn(C3CC3)c12 (stereo not drawn)")
0.957
>>> obs_value("O=C(O)CSCc1ccccc1")
0.991
>>> obs_value("COC(=O)/C=C/C(C)=C/C=C/C(C)=C/C=C/C=C(C)/C=C/C=C(C)/C=C/C(=O)O")
1.02
>>> obs_value("COc1cc2nc(N(C)CCCNC(=O)C3CCCO3)nc(N)c2cc1OC (stereo not drawn)")
0.996

----------
test: chemical genetic growth profiling, strain panel (AID 1159580);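 further: tested at 20 µM; growth read once vehicle control cultures reached saturation at 30 °C; 1 = growth at the plate median or of vehicle wells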; settings: S. cerevisiae deletion strains, growth OD, locus YDL040C, strain nat1, stronger effect = lower value
About 2,000 (36%) of roughly 5,500 compounds were called active. Inconclusive results (about 18%) are left out. The list shows a part of the results.
PARAMETER: normalized growth

>>> obs_value("Clc1ccc(C(c2ccc(Cl)cc2)C(Cl)(Cl)Cl)cc1")
1.01
>>> obs_value("CC[C@@]1(O)C[C@H](O[C@H]2C[C@H](N(C)C)[C@H](O)[C@H](C)O2)c2c(cc3c(c2O)C(=O)c2c(O)cccc2C3=O)[C@H]1C(=O)OC")
0.955
>>> obs_value("Clc1ccc(C(OCCN2CCCCC2)c2ccccc2)cc1 (configuration not stated)")
1.02
>>> obs_value("O=C(O[C@@H]1Cc2c(O)cc(O)cc2O[C@@H]1c1cc(O)c(O)c(O)c1)c1cc(O)c(O)c(O)c1")
0.979
>>> obs_value("COc1ccc(-c2coc3cc(O)ccc3c2=O)cc1")
0.985
>>> obs_value("O=C(Oc1cc(OC(=O)c2ccccc2)c2c(c1)O[C@H](c1ccc(OC(=O)c3ccccc3)c(OC(=O)c3ccccc3)c1)[C@@H](OC(=O)c1ccccc1)C2)c1ccccc1")
0.991
>>> obs_value("Nc1nc(=S)c2[nH]cnc2[nH]1")
0.982
>>> obs_value("COc1ccc(-c2coc3cc(O)ccc3c2=O)c(OC)c1O")
0.987
>>> obs_value("NCCCS(=O)(=O)O")
1.01
>>> obs_value("COC(=O)C[C@H]1C2(C)CC34OC5(C)O[C@@]6([C@H](OC(C)=O)C(OC(C)=O)[C@]7(C)C(/C(=C(/O)C(C)C)C(=O)O[C@H]7c7ccoc7)[C@@]6(O5)[C@H](OC(C)=O)[C@@]3(O)C2OC(=O)C(C)C)[C@]14C (some centres not stated)")
0.978
>>> obs_value("CCN(CC)C(=O)N1CCN(C)CC1")
0.973
>>> obs_value("O=C(Oc1cc(O)cc2c1C[C@@H](OC(=O)c1cc(O)c(O)c(O)c1)[C@@H](c1cc(O)c(O)c(O)c1)O2)c1cc(O)c(O)c(O)c1")
0.998
>>> obs_value("C/C=C(\\C)C(=O)O[C@H]1C[C@@H](OC(C)=O)[C@@]2(C(=O)OC)CO[C@@H]3C2[C@]12CO[C@](O)(C(=O)OC)[C@H]2[C@](C)(C12O[C@@]1(C)[C@H]1C[C@@H]2OC2OC=C[C@@]21O)[C@@H]3O (some centres not stated)")
0.973
>>> obs_value("Cc1ccccc1C(OCCN(C)C)c1ccccc1 (configuration not stated)")
1.01
>>> obs_value("CC(=O)S[C@@H]1CC2=CC(=O)CC[C@]2(C)[C@H]2CC[C@@]3(C)[C@@H](CC[C@@]34CCC(=O)O4)C12 (some centres not stated)")
1.01
>>> obs_value("O=C(O[C@@H]1Cc2c(O)cc(O)cc2O[C@@H]1c1ccc(O)c(O)c1)c1cc(O)c(O)c(O)c1")
1.03
>>> obs_value("CC[C@@]1(O)C[C@H](O[C@H]2C[C@H](N(C)C)[C@H](O)[C@H](C)O2)c2c(cc3c(c2O)C(=O)c2c(O)ccc(O)c2C3=O)[C@H]1C(=O)OC")
0.962
